Target: human mPGEs-1 (Homo sapiens)
Sequence (O14684 1-152): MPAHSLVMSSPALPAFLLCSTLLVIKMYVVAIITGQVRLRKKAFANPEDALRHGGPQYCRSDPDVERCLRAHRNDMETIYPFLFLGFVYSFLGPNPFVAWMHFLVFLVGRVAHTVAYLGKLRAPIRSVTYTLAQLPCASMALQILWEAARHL
metric-name: IC50 (nM)

- structure-as-smiles: "Cc1cc2nc(N3CCC(C(=O)N[C@@H]4CCOC4)CC3)n(-c3ccc4ccccc4n3)c2cc1Cl"
  IC50, nM: 37

(I) Cc1cc2nc(N3CCC(C(=O)N[C@@H]4CCOC4)CC3)n(-c3ccc4ncccc4c3)c2cc1C
(II) Cc1cc2c(cc1Cl)nc(N1CCC(C(=O)N[C@@H]3CCOC3)CC1)n2-c1ccc2ccccc2n1
Hello, I am sorting some records. Could you say if I or II has the smaller IC50 value? # reply format: chosen label
II
(II: 25 nM, I: 65 nM)
